All values here come from patent US20220226298A1.

target: UniProtKB O14842; assay: Inositol phosphate accumulation assay (IP1 HTRF) in CHO-K1 cells expressing human GPR40; details: 90 min stimulation
pEC50: −log10 of the molar value.
pEC50 values for the compounds below.

COc1ccc(F)c(-c2ccc(C(=O)Oc3cccc([C@@H](CC(=O)O)C4CC4)c3)c(C)c2)c1 :: 7.00 to 8.00
COc1ccc(F)c(-c2cc(C(=O)Oc3cccc([C@@H](CC(=O)O)C4CC4)c3)on2)c1 :: < 6.30

Query: # query: pEC50 | item CC(c1cc(C(F)(F)F)ccc1C(F)(F)F)N1CCC(OC(=O)c2cccc([C@@H](CC(=O)O)C3CC3)c2)CC1 (some centres unmarked) | system: UniProtKB O14842
Result: < 6.30

Query: # query: pEC50 | item COc1cc(-c2ccc(C(=O)Oc3cccc([C@@H](CC(=O)O)C4CC4)c3)cc2)c(F)cn1 | system: UniProtKB O14842
Result: 7.00 to 8.00

Query: # query: pEC50 | item COc1cc(-c2ccc(OC(=O)c3cccc([C@@H](CC(=O)O)C4CC4)c3)cc2)c(F)cn1 | system: UniProtKB O14842
Result: 6.30 to 7.00

Query: # query: pEC50 | item COc1ccc(F)c(-c2ccc(C(=O)Oc3cccc([C@@H](CC(=O)O)C4CC4)c3)cc2)c1 | system: UniProtKB O14842
Result: 7.00 to 8.00

Query: # query: pEC50 | item COc1cc(-c2ccc(C(=O)Oc3cccc([C@H](C4CC4)[C@H](C)C(=O)O)c3)cc2)ccn1 | system: UniProtKB O14842
Result: ≥ 8.00

Query: # query: pEC50 | item COc1cc(-c2ccc(C(=O)Oc3cccc([C@H](C4CC4)[C@H](C)C(=O)O)c3)cc2)c(F)cn1 | system: UniProtKB O14842
Result: ≥ 8.00

###

target: human GPR40 (Homo sapiens, UniProt O14842); test: Inositol phosphate accumulation assay (IP1 HTRF) in CHO-K1 cells expressing human GPR40; settings: 90 min stimulation
Sequence (O14842 whole entry): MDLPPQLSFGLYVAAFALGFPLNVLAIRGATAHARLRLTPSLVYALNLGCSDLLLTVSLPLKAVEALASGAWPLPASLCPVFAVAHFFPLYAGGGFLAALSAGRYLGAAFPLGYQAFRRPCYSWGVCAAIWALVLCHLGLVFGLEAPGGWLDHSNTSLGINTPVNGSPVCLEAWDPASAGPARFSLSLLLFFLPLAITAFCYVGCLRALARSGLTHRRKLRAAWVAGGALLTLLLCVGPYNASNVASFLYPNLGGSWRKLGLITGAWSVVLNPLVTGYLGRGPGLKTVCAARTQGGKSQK
EC50 values for the compounds below.

O=C(O)C[C@H](c1cccc(OC(=O)c2ccc(-c3cc(O)ccc3F)cc2)c1)C1CC1 :: 10 to 100 nM

Query: I have this compound here, COc1cc(-c2ccc(C(=O)Oc3cccc([C@H](C4CC4)[C@@](C)(F)C(=O)O)c3)cc2CN(C(C)C)C(C)C)c(F)cn1 , and I need its recorded EC50.
Result: ≤ 10 nM

Query: I have this compound here, COc1cc(-c2ccc(OC(=O)c3cccc([C@H](C4CC4)[C@@](C)(F)C(=O)O)c3)cc2CN(C(C)C)C(C)C)c(F)cn1 , and I need its recorded EC50.
Result: ≤ 10 nM

Query: I have this compound here, COc1ccc(F)c([C@H]2CC[C@H](C(=O)Oc3cccc([C@H](C4CC4)[C@H](C)C(=O)O)c3)CC2)c1 , and I need its recorded EC50.
Result: ≤ 10 nM

Query: I have this compound here, COc1cc(-c2ccc(C(=O)Oc3cccc([C@H](C4CC4)[C@H](C)C(=O)O)c3F)cc2CN(C(C)C)C(C)C)c(F)cn1 , and I need its recorded EC50.
Result: ≤ 10 nM

Query: I have this compound here, CCN(Cc1cc(C(=O)Oc2cccc([C@H](C3CC3)[C@@](C)(F)C(=O)O)c2)ccc1-c1cc(OC)ncc1F)C(C)C , and I need its recorded EC50.
Result: ≤ 10 nM

Query: I have this compound here, Cc1cc(-c2cc(O)ncc2F)c(CN(C(C)C)C(C)C)cc1C(=O)Oc1cccc([C@H](C2CC2)[C@@](C)(F)C(=O)O)c1 , and I need its recorded EC50.
Result: > 500 nM

###

EC50 values for the compounds below.
target: human GPR40 (Homo sapiens); test: Inositol phosphate accumulation assay (IP1 HTRF) in CHO-K1 cells expressing human GPR40; conditions: 90 min stimulation

COc1cc(-c2ccc(C(=O)Oc3cccc([C@H](C4CC4)[C@H](C)C(=O)O)c3)cc2CN(C[C@H](O)[C@@H](O)[C@H](O)[C@H](O)CO)C(C)C)c(F)cn1 [Compound 35] :: > 0.5 µM
COc1cc(-c2cc(F)c(OC(=O)c3cccc([C@H](C4CC4)[C@H](C)C(=O)O)c3)cc2CN(C(C)C)C(C)C)c(F)cn1 [Compound 60] :: ≤ 0.01 µM

Query: I have this compound here, COc1cc(-c2ccc(C(=O)Oc3cccc([C@H](C4CC4)[C@H](C)C(=O)O)c3)cc2CN(C(C)C)C(C)C)ccn1 [Compound 28] , and I need its recorded EC50.
Result: ≤ 0.01 µM

Query: I have this compound here, COC(=O)c1cnc(OC)cc1-c1ccc(C(=O)Oc2cccc([C@H](C3CC3)[C@H](C)C(=O)O)c2)cc1CN(C(C)C)C(C)C [Compound 53] , and I need its recorded EC50.
Result: ≤ 0.01 µM

Query: I have this compound here, COc1cc(-c2ccc(OC(=O)c3cccc([C@H](C4CC4)[C@H](C)C(=O)O)c3)cc2CN(C(C)C)C(C)C)c(F)cn1 [Compound 58] , and I need its recorded EC50.
Result: ≤ 0.01 µM

###

target: human GPR40 (Homo sapiens, UniProt O14842); test: Inositol phosphate accumulation assay (IP1 HTRF) in CHO-K1 cells expressing human GPR40; conditions: 90 min stimulation
measure: EC50

COc1cc(-c2ccc(C(=O)Oc3cccc(C(CS(=O)(=O)O)C4CC4)c3)cc2CN(C(C)C)C(C)C)c(F)cn1 (stereo not shown) :: > 500 nM
COc1ccc(F)c(-c2ccc(OC(=O)c3cccc([C@@H](CC(=O)O)C4CC4)c3)c(C)c2)c1 :: 100 to 500 nM
COc1cc(-c2cc(F)c(C(=O)Oc3cccc([C@H](C4CC4)[C@H](C)C(=O)O)c3)cc2CN(C(C)C)C(C)C)ccn1 :: ≤ 10 nM
COc1cc(-c2cnc(C(=O)Oc3cccc([C@@H](CC(=O)O)C4CC4)c3)cn2)c(F)cn1 :: > 500 nM
CCN(Cc1cc(OC(=O)c2cccc([C@H](C3CC3)[C@H](C)C(=O)O)c2)ccc1-c1cc(OC)ncc1F)C(C)C :: ≤ 10 nM
COc1cc(-c2cc(C)c(C(=O)Oc3cccc(C(CP(C)(=O)O)C4CC4)c3)cc2CN(C(C)C)C(C)C)c(F)cn1 (stereo not shown) :: > 500 nM

Query: I have this compound here, CC(c1cc(C(F)(F)F)ccc1C(F)(F)F)N1CC(C)(C(=O)Oc2cccc([C@@H](CC(=O)O)C3CC3)c2)C1 (stereo partly shown) , and I need its recorded EC50.
Result: 10 to 100 nM

Query: I have this compound here, CC(c1cc(C(F)(F)F)ccc1C(F)(F)F)N1CC(OC(=O)c2cccc([C@@H](CC(=O)O)C3CC3)c2)C1 (stereo partly shown) , and I need its recorded EC50.
Result: > 500 nM

Query: I have this compound here, COc1cc(-c2ccc(C(=O)Oc3cccc([C@H](C4CC4)[C@H](C)C(=O)O)c3)cc2CN2CCCC2(C)C)c(F)cn1 , and I need its recorded EC50.
Result: ≤ 10 nM

Query: I have this compound here, CCN(Cc1cc(C(=O)Oc2cccc([C@H](C3CC3)[C@H](C)C(=O)O)c2)ccc1-c1cc(OC)ncc1F)C(C)C , and I need its recorded EC50.
Result: ≤ 10 nM

Query: I have this compound here, CCN(Cc1cc(C(=O)Oc2cccc([C@@H](CC(=O)O)C3CC3)c2)c(C)cc1-c1cc(OC)ncc1F)C(C)C , and I need its recorded EC50.
Result: 100 to 500 nM

Query: I have this compound here, COc1cc(-c2ccc(C(=O)Oc3cccc([C@H](C4CC4)[C@H](C)C(=O)OCc4oc(=O)oc4C)c3)cc2CN(C(C)C)C(C)C)c(F)cn1 , and I need its recorded EC50.
Result: ≤ 10 nM

Query: I have this compound here, COc1cc(-c2cc(C)c(C(=O)Oc3cccc([C@H](CP(C)(=O)O)C4CC4)c3)cc2CN(C(C)C)C(C)C)c(F)cn1 (single isomer, unassigned) [Compound 71a] , and I need its recorded EC50.
Result: > 500 nM
